// provenance: patent US20230091225A1

test system: LNCaP/AR cells; assay: Inhibition of proliferation of LNCaP/AR prostate cancer cells (CCK-8); assay type: cell-based; details: proliferation of LNCap/AR cells, 6 days, CCK-8; read-out: IC50
ASSAY_ENDPOINT: IC50

State its IC50: Cc1ncsc1-c1ccc([C@H](C)NC(=O)[C@H]2C[C@@H](O)CN2C(=O)[C@@H](NC(=O)COCCCCC#Cc2cc3c(cn2)C(=O)N(C2C(C)(C)C(Oc4ccc(C#N)c(Cl)c4)C2(C)C)C3)C(C)(C)C)cc1 (some centres unmarked)
< 100 nM

Return IC50 for the following compound: Cc1ncsc1-c1ccc([C@H](C)NC(=O)[C@@H]2C[C@@H](O)CN2C(=O)[C@@H](NC(=O)C2(OCCCCC#Cc3ccc4c(c3)CN(C3C(C)(C)C(Oc5ccc(C#N)c(Cl)c5)C3(C)C)C4=O)CC2)C(C)(C)C)cc1 (some centres unmarked)
< 100 nM

Please give the documented IC50 of `CC(=O)O[C@@H]1C[C@@H](C(=O)N[C@@H](C)c2ccc(-c3scnc3C)cc2)N(C(=O)[C@@H](NC(=O)Cn2cc(C#Cc3ccc4c(c3)CN([C@H]3C(C)(C)[C@H](Oc5ccc(C#N)c(Cl)c5)C3(C)C)C4=O)cn2)C(C)(C)C)C1`
100 to 500 nM

Provide one value: measured IC50 of `Cc1ncsc1-c1ccc([C@H](C)NC(=O)[C@@H]2C[C@@H](O)CN2C(=O)[C@@H](NC(=O)COCCCCn2cc(-c3ccc4c(c3)CN([C@H]3C(C)(C)[C@H](Oc5ccc(C#N)c(Cl)c5)C3(C)C)C4=O)nn2)C(C)(C)C)cc1`
100 to 500 nM

Specify reported IC50 for the compound shown: CC(C#Cc1ccc2c(c1)CN(C1C(C)(C)C(Oc3ccc(C#N)c(Cl)c3)C1(C)C)C2=O)N1CCN(c2cc3c(cc2F)C(=O)N(C2CCC(=O)NC2=O)C3=O)CC1 (centres unmarked)
> 1000 nM

Provide one value: measured IC50 of Cc1ncsc1-c1ccc([C@H](C)NC(=O)[C@@H]2C[C@@H](O)CN2C(=O)[C@@H](NC(=O)Cn2cc(C#Cc3ccc4c(c3)CN(C3C(C)(C)C(Oc5ccc(C#N)c(Cl)c5)C3(C)C)C4=O)cn2)C(C)(C)C)cc1 (some centres unmarked)
< 100 nM

Read the entry CC1(C)C(Oc2ccc(C#N)c(Cl)c2)C(C)(C)C1N1Cc2nc(N3CCC(CN4CCN(c5cc6c(cc5F)CN([C@@H]5CCC(=O)NC5=O)C6=O)CC4)CC3)ccc2C1=O (some centres unmarked) and write its reported IC50.
100 to 500 nM

Check the records and state IC50 for `Cc1ncsc1-c1ccc([C@H](C)NC(=O)[C@@H]2C[C@@H](O)CN2C(=O)[C@@H](NC(=O)COCCOCC#Cc2ccc3c(c2)CN([C@H]2C(C)(C)[C@H](Oc4ccc(C#N)c(Cl)c4)C2(C)C)C3=O)C(C)(C)C)cc1`
< 100 nM

Give the reported value of IC50 for this record: CC1(C)C(Oc2ccc(C#N)c(Cl)c2)C(C)(C)C1N1Cc2nc(N3CCC(CN4CCN(c5ccc6c(c5)C(=O)N([C@@H]5CCC(=O)NC5=O)C6=O)CC4)CC3)ccc2C1=O (some centres unmarked)
100 to 500 nM

Look up and report measured IC50 for this entry: Cc1ncsc1-c1ccc([C@H](C)NC(=O)[C@@H]2C[C@@H](O)CN2C(=O)[C@@H](NC(=O)C2(C(=O)NCCCC#Cc3ccc4c(c3)CN(C3C(C)(C)C(Oc5ccc(C#N)c(Cl)c5)C3(C)C)C4=O)CC2)C(C)(C)C)cc1 (some centres unmarked)
< 100 nM

Output measured IC50 for this item: CC1(C)[C@H](Oc2ccc(C#N)c(Cl)c2)C(C)(C)[C@H]1N1Cc2cc(C#Cc3cnn(C4CN(c5cc6c(cc5F)C(=O)N(C5CCC(=O)NC5=O)C6=O)C4)c3)ccc2C1=O (some centres unmarked)
> 1000 nM

In one line, give reported IC50 of the entry CC(=O)O[C@@H]1C[C@H](C(=O)N[C@@H](C)c2ccc(-c3scnc3C)cc2)N(C(=O)[C@@H](NC(=O)COCCCCC#Cc2ccc3c(c2)C(=O)N(C2C(C)(C)C(Oc4ccc(C#N)c(Cl)c4)C2(C)C)C3)C(C)(C)C)C1 (some centres unmarked) .
< 100 nM

Supply recorded IC50 for `CC1(C)[C@H](Oc2ccc(C#N)c(Cl)c2)C(C)(C)[C@H]1N1Cc2cc(N3CCC(CN4CCN(c5cc6c(cc5F)CN([C@@H]5CCC(=O)NC5=O)C6=O)CC4)CC3)ccc2C1=O` here.
100 to 500 nM

Let me know recorded IC50 for CN1C(=O)CCC(N2Cc3cc(F)c(N4CCN(CC5CCN(c6ccc7c(n6)CN(C6CCC(Oc8ccc(C#N)c(Cl)c8)CC6)C7=O)CC5)CC4)cc3C2=O)C1=O (centres unmarked) , thanks.
500 to 1000 nM

* * *

Target: androgen receptor (AR) (Homo sapiens, UniProt P10275)
Sequence (P10275 1-920): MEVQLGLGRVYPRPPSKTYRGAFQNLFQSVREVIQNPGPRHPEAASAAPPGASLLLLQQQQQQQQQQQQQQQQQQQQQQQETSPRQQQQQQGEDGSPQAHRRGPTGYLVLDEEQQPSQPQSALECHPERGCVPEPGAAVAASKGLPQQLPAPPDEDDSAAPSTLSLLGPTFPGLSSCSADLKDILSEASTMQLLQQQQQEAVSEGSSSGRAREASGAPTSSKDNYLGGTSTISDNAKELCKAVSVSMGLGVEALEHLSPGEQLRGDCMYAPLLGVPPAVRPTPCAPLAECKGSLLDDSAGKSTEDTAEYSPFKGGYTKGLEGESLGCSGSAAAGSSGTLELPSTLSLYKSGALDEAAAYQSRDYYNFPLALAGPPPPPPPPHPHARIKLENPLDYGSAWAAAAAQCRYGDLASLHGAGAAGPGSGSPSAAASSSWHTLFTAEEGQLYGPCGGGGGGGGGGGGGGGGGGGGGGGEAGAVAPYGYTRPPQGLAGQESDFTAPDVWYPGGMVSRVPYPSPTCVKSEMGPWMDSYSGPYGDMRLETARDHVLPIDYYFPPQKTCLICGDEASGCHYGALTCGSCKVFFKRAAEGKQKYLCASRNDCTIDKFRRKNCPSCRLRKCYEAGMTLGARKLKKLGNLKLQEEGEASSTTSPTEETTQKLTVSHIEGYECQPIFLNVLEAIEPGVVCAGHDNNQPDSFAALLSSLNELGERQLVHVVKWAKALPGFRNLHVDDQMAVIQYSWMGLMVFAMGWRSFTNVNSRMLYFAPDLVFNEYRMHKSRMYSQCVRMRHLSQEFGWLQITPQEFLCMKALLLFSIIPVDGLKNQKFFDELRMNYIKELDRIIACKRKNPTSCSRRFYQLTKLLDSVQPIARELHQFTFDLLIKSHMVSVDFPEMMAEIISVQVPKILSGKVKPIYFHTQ
Assay: Degradation of androgen receptor (AR) protein in VCaP cells by ELISA
Type: cell-based
Details: VCaP, AR degradation, VCaP cells, 16 h, ELISA, Table 3-1; read-out: Dmax (%)
Task for the reader: assign each of the following compounds its reported Dmax.

Given the compound C[C@H]1CN(C[C@@H]2[C@H]3CN(c4cc5c(cc4F)C(=O)N(C4CCC(=O)NC4=O)C5=O)C[C@@H]23)CCN1c1cnc(C(=O)N[C@H]2CC[C@H](Oc3ccc(C#N)c(Cl)c3)CC2)cn1 (stereo partly shown) [Compound 171] , write its reported Dmax.
> 80%

For the compound N#Cc1ccc(O[C@H]2CC[C@H](NC(=O)c3cnc(N4CCC(CN5CC6(CCN(c7cc8c(cc7F)C(=O)N(C7CCC(=O)NC7=O)C8=O)C6)C5)CC4)cn3)CC2)cc1Cl (stereo partly shown) [Compound 188] , give its reported Dmax.
> 80%

Quick one: give measured Dmax for C[C@H]1CN(c2cnc(C(=O)N[C@H]3CC[C@H](Oc4ccc(C#N)c(Cl)c4)CC3)cn2)CCN1C[C@H]1[C@@H]2CN(c3cc4c(cc3F)C(=O)N(C3CCC(=O)NC3=O)C4=O)C[C@@H]21 (stereo partly shown) [Compound 169]
60 to 80%

Specify reported Dmax for the compound shown: CC1(C)[C@H](Oc2ccc(C#N)c(Cl)c2)C(C)(C)[C@H]1N1Cc2nc(N3CCC(CN4CCN(c5ccc6c(c5)C(=O)N(C5CCC(=O)NC5=O)C6=O)CC4)CC3)ncc2C1=O (stereo partly shown) [Compound 383]
> 80%

Answer with the recorded Dmax of N#Cc1ccc(O[C@H]2CC[C@H](NC(=O)c3ccc(N4CCC(CN5CCC6(CC5)CN(c5ccc7c(=O)n(C8CCC(=O)NC8=O)cnc7c5)C6)CC4)nn3)CC2)cc1Cl (stereo partly shown) [Compound 247] only.
> 80%

Determine from records and report Dmax for N#Cc1ccc(O[C@H]2CC[C@H](NC(=O)c3cnn([C@H]4CC[C@H](CN5CCC6(CC5)CN(c5cc7c(cc5F)C(=O)N(C5CCC(=O)NC5=O)C7=O)C6)CC4)n3)CC2)cc1Cl (stereo partly shown) [Compound 117]
> 80%

Respond only with Dmax recorded for N#Cc1ccc(O[C@H]2CC[C@H](NC(=O)c3cnc(N4CCC(N5CC6(CCN(c7cc8c(cc7F)C(=O)N(C7CCC(=O)NC7=O)C8=O)CC6)C5)CC4)cn3)CC2)cc1C(F)(F)F (stereo partly shown) [Compound 236]
> 80%

Return the recorded Dmax value; entry: N#Cc1ccc(O[C@H]2CC[C@H](NC(=O)c3ccc(N4CCN(C[C@@H]5[C@H]6CN(c7cc8c(cc7F)C(=O)N(C7CCC(=O)NC7=O)C8=O)C[C@@H]56)CC4)cn3)CC2)cc1Cl (stereo partly shown) [Compound 286]
60 to 80%

Note Dmax for the compound shown: CC1(C)[C@H](Oc2ccc(C#N)c(Cl)c2)C(C)(C)[C@H]1N1Cc2nc(C#CC3CCC(N4CCC5(CN(c6ccc7c(c6)C(=O)N(C6CCC(=O)NC6=O)C7=O)C5)C4)CC3)ccc2C1=O (stereo partly shown) [Compound 372]
< 40%

Item N#Cc1ccc(O[C@H]2CC[C@H](NC(=O)c3cnc(N4CC5(CCN(C6CCN(c7cc8c(cc7F)C(=O)N(C7CCC(=O)NC7=O)C8=O)CC6)CC5)C4)cn3)CC2)cc1Cl (stereo partly shown) [Compound 242] : provide Dmax
> 80%

Using the record for N#Cc1ccc(OC2CCC(NC(=O)c3cnc(N4CC5(CCN(CC6CCN(c7cc8c(cc7F)C(=O)N(C7CCC(=O)NC7=O)C8=O)CC6)CC5)C4)cn3)CC2)cc1Cl (stereo not shown) [Compound 235] , state its measured Dmax.
> 80%

Report Dmax for N#Cc1ccc(O[C@H]2CC[C@H](NC(=O)c3ccc(N4CCC5(CCN(CC6CCN(c7ccc8c(c7)C(=O)N(C7CCC(=O)NC7=O)C8=O)CC6)CC5)CC4)nn3)CC2)cc1Cl (stereo partly shown) [Compound 262]
> 80%

Please list Dmax recorded for the compound CC1(C)[C@H](Oc2ccc(C#N)c(Cl)c2)C(C)(C)[C@H]1N1Cc2nc(C#CC3CCC(N4CC5CC4CN5c4cc5c(cc4F)C(=O)N(C4CCC(=O)NC4=O)C5=O)CC3)ccc2C1=O (stereo partly shown) [Compound 343]
40 to 60%

Consider the compound CC1(C)[C@H](Oc2ccc(C#N)c(Cl)c2)C(C)(C)[C@H]1N1Cc2nc(C#CC3CCC(N4CCC5(CC4)CN(c4ccc6c(c4)C(=O)N(C4CCC(=O)NC4=O)C6=O)C5)CC3)ccc2C1=O (stereo partly shown) [Compound 362] and give its recorded Dmax.
> 80%

# return recorded Dmax for entry C[C@@H]1CN(C[C@@H]2[C@H]3CN(c4cc5c(cc4F)C(=O)N(C4CCC(=O)NC4=O)C5=O)C[C@@H]23)CCN1c1ccc(C(=O)N[C@H]2CC[C@H](Oc3ccc(C#N)c(Cl)c3)CC2)nn1 (stereo partly shown) [Compound 263]
60 to 80%

Give the measured Dmax for CC1(C)[C@H](Oc2ccc(C#N)c(Cl)c2)C(C)(C)[C@H]1N1Cc2nc(C#CC3CCC(N4CCC5(CC4)CN(c4cc6c(cc4F)C(=O)N(C4CCC(=O)NC4=O)C6=O)C5)CC3)ccc2C1=O (stereo partly shown) [Compound 363]
60 to 80%

Could you please provide reported Dmax for N#Cc1ccc(O[C@H]2CC[C@H](NC(=O)c3ccc(N4CCC(CN5CCC(Oc6ccc7c(c6)C(=O)N(C6CCC(=O)NC6=O)C7=O)CC5)CC4)nn3)CC2)cc1Cl (stereo partly shown) [Compound 147] ? Thanks!
60 to 80%

# return recorded Dmax for input CC1(C)[C@H](Oc2ccc(C#N)c(Cl)c2)C(C)(C)[C@H]1N1Cc2nc(N3CCC(CN4CCN(c5cc6c(cc5F)C(=O)N(C5CCC(=O)NC5=O)C6=O)CC4)CC3)cnc2C1=O (stereo partly shown) [Compound 384]
60 to 80%

Provide only the value of recorded Dmax for CC1(C)[C@H](Oc2ccc(C#N)c(Cl)c2)C(C)(C)[C@H]1N1Cc2nc(C#CC3CCC(N4CC5CC4CN5c4ccc5c(c4)C(=O)N(C4CCC(=O)NC4=O)C5=O)CC3)ccc2C1=O (single isomer, unassigned) [Compound 352]
40 to 60%
